Tested on: HCC-2998 colon
Experiment: NCI tumour cell line growth inhibition, 48 h
parameter-measured: TGI (µM)
Return type: number; implicit unit µM.

The value of TGI recorded for S=C1NC2=C(COC/C2=C\c2ccccc2Cl)C(c2ccccc2Cl)N1 (configuration not stated) when tested on HCC-2998 colon reads 89

Log: HCC-2998 colon, molecule CC1(C)CC(O)CCCCCCOc2c(CN)cccc2NC(=O)c2nc(cnc2N)-c2ccc(cc2)S1(=O)=O (configuration not stated) , TGI = 4.24

Hey, HCC-2998 colon data for CCN(CC)CCNc1ccc2nnn3c4ccc(OC(C)=O)cc4c(=O)c1c23 : TGI came out at 17.4

# Cc1ccc(N2C(=O)C(O)=C(C(=O)C(C)(C)C)C2c2ccc([N+](=O)[O-])cc2)cc1 (configuration not stated) with HCC-2998 colon: TGI is 45.4

Param item: CS(=O)(=O)OC1CCN(C2(c3cccc(O)c3)CCCCC2)CC1 ; param system: HCC-2998 colon; output TGI: 39.7

Given the molecule O=C(Nc1ccccc1)OCc1nc2c([nH]1)C(=O)C=CC2=O and test system HCC-2998 colon, the measured TGI is 30.1

HCC-2998 colon data for COc1cc(C2c3cc4c(cc3OC(N3CCOCC3)C2C)OCO4)cc(OC)c1OC (configuration not stated) ; its TGI: 4.35

Result for O=C(Nn1c2c(sc1=NC1CC1)C(=O)c1ccccc1C2=O)c1cc2ccc1CCc1ccc(cc1)CC2 , tested on HCC-2998 colon, TGI: 6.67

Summary: ClC1=C(Cl)C(Cl)=C(Cl)C1=Cc1ccc(Cl)cc1Cl , HCC-2998 colon, TGI = 1.14

* * *

System: CAKI-1 renal
Test: NCI tumour cell line growth inhibition, 48 h
Give TGI for every item shown.

Note to self: TGI recorded for NC(=O)C12CCC1C1CCCCC12N1CCOCC1 (stereo not given) was > 100 µM

# TGI (molecule: CN(C)NC(=S)NC12CC3CC(CC(C3)C1)C2 ) is > 100 µM

The molecule listed as COC(=O)C1=C2Nc3ccccc3C23CCN2C(O)C4(CC5CC67CCOC6CCN6CCC8(c9cccc(OC)c9N(C4)C58O)C67)C4OCCC4(C1)C23 (stereo not given) shows TGI equal to > 100 µM

Value of TGI reported for the molecule Cn1c(=O)c2[nH]cnc2n(CC(=O)O)c1=O is > 100 µM

Reported TGI for O=C(/C=C/c1ccsc1)c1ccc(Cl)s1 was > 100 µM

GET /value?item= Cc1cc(Cl)ccc1Nc1nc(C(F)(F)F)ccc1C(=O)N/N=C/c1ccc(N(C)C)cc1 &field=TGI returns 8.52 µM

Measured TGI, Cc1ccc(C(=O)/C=C/N2CCN(c3cccc(C(F)(F)F)c3)CC2)cc1 : 37 µM

Memo: CC(C)c1ccc(O)c(O)c(=O)c1 (tested in a mixture with another compound) , reported TGI: > 52.2 µM

Lab note: CC(C)=CCC[C@@H](C)C1=C(O)C(Nc2ccccc2F)=C(C)C(=O)C1=O gave TGI of 48.2 µM

Query CC1=NN(c2cccc(Cl)c2)C2(C1)SCC(=O)N2c1nc2ccccc2s1 (stereo not given) yields TGI of > 100 µM

* * *

Hi there, I'd appreciate the recorded TGI for every entry that follows.
Tested on: OVCAR-8 ovarian
Assay: NCI tumour cell line growth inhibition, 48 h

Short answer for N#CNc1nc(C(=O)Nc2ccc(Cl)cc2)cc(-c2ccccc2)n1 : TGI was > 100 µM

Summary for this molecule, CCc1ccccc1NC(=O)C1=C(C)NC(C)=C(C(=O)Nc2ccccc2CC)C1c1ccc(NC(C)=O)cc1 : TGI is > 100 µM

So, NC(=O)C12CCC1C1CCCCC12N1CCOCC1 (stereo not given) ? Its TGI was > 100 µM

Documented TGI of CCOC(=O)c1[nH]n(-c2ccccc2)c(=O)c1C=NC(=S)C(N)=S : > 100 µM

Per the records, this molecule ( C[n+]1c(-c2ccc(/C=N/Nc3n[nH]c(=S)n3N/N=C/c3ccc(-c4cn5ccccc5[n+]4C)cc3)cc2)cn2ccccc21 ) has TGI equal to > 100 µM

# molecule C=CC1=C(C)C(Cc2[nH]c(/C=c3\[nH]/c(=C/C4=NC(=O)C(C)/C4=C\C)c(C)c3CCC(=O)O)c(CCC(=O)OC)c2C)NC1=O (stereo not given) ; its TGI = > 100 µM

TGI for Clc1ccc2c(NCCN3CCN(c4ccnc(N5CCCC5)n4)CC3)ccnc2c1 is 18.5 µM

# TGI (molecule: C=CC[C@@]1(C#N)C[C@H](C[C@]2(C#N)C[C@H](CCl)OC(C)(C)O2)OC(C)(C)O1 ) is > 100 µM

Documented TGI of Cn1c(=O)c2[nH]cnc2n(CC(=O)O)c1=O : > 100 µM

Given item CCC(=O)n1c(=O)n(-c2ccc([N+](=O)[O-])cc2)c(=O)n1C(=O)CC , the value recorded as its TGI is > 100 µM

// sample O=C1c2c(O)cccc2C(C(=O)CCCC(=O)C2c3cccc(O)c3C(=O)c3c(O)cccc32)c2cccc(O)c21 , its TGI was 2.77 µM

// TGI value for COc1cc(C2c3cc4c(cc3[C@@H](Nc3ccc(N5CCOCC5)cc3)C3COC(=O)[C@H]23)OCO4)cc(OC)c1O (stereo not given in full) : 3.95 µM

TGI in this record for O=C(/C=C/c1ccsc1)c1ccc(Cl)s1 : > 100 µM

Please fill in: TGI reported for O=C(O)C1C2CCC(C2)C1c1ccccc1 (stereo not given) = > 100 µM

// CCOc1ccc(-n2c(=O)n3c(Nc4ccc(Cl)cc4)nc4c(c(=O)n(C)c(=O)n4C)n3c2=O)cc1 : TGI value = > 100 µM

Form: molecule = O=C(O)c1ccc(/C=N\N(CCO)C2=NCCN2)cc1 ; TGI = > 100 µM

Just so you know, measured TGI for CCOC(=O)c1ccc2c(=O)n3c(C(=O)OCC)ccc3c(=O)n12 came out at > 100 µM

Recorded TGI (molecule COc1ccc(Cn2c3c(c4c(O)cccc42)C(=O)c2ccccc2-3)cc1 ): 13.2 µM

So for O=C(Cc1nc2ccccc2s1)C(=O)Nc1ccc(Cl)cc1Cl , the logged TGI turned out to be > 100 µM

// sample C[n+]1ccc2[nH]c3ccccc3c2c1 , its TGI was > 100 µM
